All figures here come from PubChem BioAssay AID1963429.

Test system: 126254-015-R-J1-PDC complex spheroid growth, % test/control
Experiment summary: Anticancer human tumor 126254-015-R-J1-PDC patient-derived soft tissue sarcoma cell line growth inhibition [Asc]
Condition info: second compound 0.0316 µM; first compound 3.16 µM; stronger effect = lower value
Experimental readout: viability, T/C (%)
Only the number, expressed in %, is required.

// query Recorded viability, T/C of C=C(F)C(=O)N1CCN(c2nc(OCC3CCCN3C)nc3c2CCN(c2cccc4cccc(Cl)c24)C3)CC1CC#N (centres undefined) + CNC(C)C(=O)NC1CN(S(=O)(=O)c2cccc(S(=O)(=O)N3CCC4CCC(C(=O)NC(c5ccccc5)c5ccccc5)N4C(=O)C(NC(=O)C(C)NC)C3)c2)CCC2CCC(C(=O)NC(c3ccccc3)c3ccccc3)N2C1=O , please.
// result 43.5

// query Likewise for C#Cc1c(F)ccc2cc(O)cc(-c3ncc4c(N5CC6CCC(C5)N6)nc(OCC56CCCN5CC(F)C6)nc4c3F)c12 (centres undefined) + CNC(C)C(=O)NC1CN(S(=O)(=O)c2cccc(S(=O)(=O)N3CCC4CCC(C(=O)NC(c5ccccc5)c5ccccc5)N4C(=O)C(NC(=O)C(C)NC)C3)c2)CCC2CCC(C(=O)NC(c3ccccc3)c3ccccc3)N2C1=O ?
// result 61.6

// query Likewise for C=CC(=O)N1CCN(c2nc(=O)n(-c3c(C)ccnc3C(C)C)c3nc(-c4c(O)cccc4F)c(F)cc23)C(C)C1 (centres undefined) + CNC(C)C(=O)NC1CN(S(=O)(=O)c2cccc(S(=O)(=O)N3CCC4CCC(C(=O)NC(c5ccccc5)c5ccccc5)N4C(=O)C(NC(=O)C(C)NC)C3)c2)CCC2CCC(C(=O)NC(c3ccccc3)c3ccccc3)N2C1=O ?
// result 87.1

// query Likewise for O=C(c1cc(Cc2n[nH]c(=O)c3ccccc23)ccc1F)N1CCN(C(=O)C2CC2)CC1 + CNC(C)C(=O)NC1CN(S(=O)(=O)c2cccc(S(=O)(=O)N3CCC4CCC(C(=O)NC(c5ccccc5)c5ccccc5)N4C(=O)C(NC(=O)C(C)NC)C3)c2)CCC2CCC(C(=O)NC(c3ccccc3)c3ccccc3)N2C1=O ?
// result 55.1

---

Field: viability, T/C. Provide a value for each of the compounds that follow.
System: 126254-015-R-J1-PDC complex spheroid growth, % test/control
Experiment summary: Anticancer human tumor 126254-015-R-J1-PDC cell line growth inhibition [Asc];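 also: spheroids exposed to compound for seven days; 100% = DMSO vehicle control wells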
Condition info: second compound 0.949 µM; first compound 1 µM; stronger effect = lower value
Only the number, expressed in %, is required.

// query Recorded viability, T/C of CCN1CCN(Cc2ccc(Nc3ncc(F)c(-c4cc(F)c5nc(C)n(C(C)C)c5c4)n3)nc2)CC1 + CCN1C(C(=O)NC23CCC(C(=O)O)(CC2)CC3)C(c2cccc(Cl)c2F)C2(C(=O)Nc3cc(Cl)ccc32)C12CCCCC2 , please.
// result 113

// query Likewise for O=C(c1ccc(F)c(F)c1Nc1ccc(I)cc1F)N1CC(O)([C@@H]2CCCCN2)C1 + CCN1C(C(=O)NC23CCC(C(=O)O)(CC2)CC3)C(c2cccc(Cl)c2F)C2(C(=O)Nc3cc(Cl)ccc32)C12CCCCC2 ?
// result 41.8

// query Likewise for C=C(F)C(=O)N1CCN(c2nc(OCC3CCCN3C)nc3c2CCN(c2cccc4cccc(Cl)c24)C3)CC1CC#N (centres undefined) + CCN1C(C(=O)NC23CCC(C(=O)O)(CC2)CC3)C(c2cccc(Cl)c2F)C2(C(=O)Nc3cc(Cl)ccc32)C12CCCCC2 ?
// result 101

// query Likewise for O=C(c1cc(Cc2n[nH]c(=O)c3ccccc23)ccc1F)N1CCN(C(=O)C2CC2)CC1 + CCN1C(C(=O)NC23CCC(C(=O)O)(CC2)CC3)C(c2cccc(Cl)c2F)C2(C(=O)Nc3cc(Cl)ccc32)C12CCCCC2 ?
// result 83.9
